The reported measurements were obtained from ChEMBL document CHEMBL1155817.

- Tested on: A549
- assaySummary: Cytotoxicity against human A549 cells after 48 hrs by SRB assay
- Type: functional, cell-based
- experimentalConditions: A549, 48 h
reportedProperty: IC50

[
  {
    "molecule": "COc1cc([C@H]2OC(=O)[C@H]3[C@@H]2CO[C@@H]3c2ccc(O)c(OC)c2)ccc1O",
    "result": "> 40 µg/mL"
  },
  {
    "molecule": "COc1cc([C@@H]2OC[C@@H]3[C@H]2CO[C@H]3c2ccc(O)c(OC)c2)ccc1O [(+)-PINORESINOL]",
    "result": "> 40 µg/mL"
  },
  {
    "molecule": "COc1cc(/C=C/C(=O)OC[C@H](Cc2ccc(O)c(OC)c2)[C@H](COC(=O)/C=C/c2ccc(O)c(OC)c2)Cc2ccc(O)c(OC)c2)ccc1O",
    "result": "12 µg/mL"
  },
  {
    "molecule": "COc1cc(/C=C/C(=O)OC[C@H](Cc2ccc(O)c(OC)c2)[C@H](CO)Cc2ccc(O)c(OC)c2)ccc1O [HANULTARIN]",
    "result": "3 µg/mL"
  }
]

Now let's try a different one.
Entry COc1cc(C[C@@H](CO)[C@H](CO)Cc2ccc(O)c(OC)c2)ccc1O [(+)-SECOISOLARICIRESINOL] : reported IC50 = ?
> 40 µg/mL
